The following compounds are listed with their measured IC50 values.
- ASSAY TARGET: DPB1*0401 (Homo sapiens, UniProt P04440+P20036)
- TEST METHOD NOTES: biochemical
RECORDED METRIC: IC50 (nM)

INSERT INTO measurements (chemical_smiles, units_of_measure, observed_value) VALUES
  ('CC[C@H](C)[C@H](NC(=O)[C@H](Cc1ccc(O)cc1)NC(=O)[C@H](C)NC(=O)[C@H](CC(=O)O)NC(=O)[C@H](C)NC(=O)[C@@H](NC(=O)CNC(=O)[C@@H](N)CCC(N)=O)C(C)C)C(=O)N[C@H](C(=O)N[C@@H](CC(C)C)C(=O)N[C@H](C(=O)N[C@H](C(=O)N[C@@H](CC(C)C)C(=O)N1CCC[C@H]1C(=O)N[C@@H](CCCCN)C(=O)O)[C@@H](C)O)C(C)C)[C@@H](C)O', 'nM', 2010),
  ('CC[C@H](C)[C@H](NC(=O)[C@H](Cc1ccc(O)cc1)NC(=O)[C@H](C)NC(=O)[C@H](CC(=O)O)NC(=O)[C@H](C)NC(=O)[C@@H](N)C(C)C)C(=O)N[C@H](C(=O)N[C@@H](CC(C)C)C(=O)N[C@H](C(=O)N[C@H](C(=O)N[C@@H](CC(C)C)C(=O)N1CCC[C@H]1C(=O)N[C@@H](CCCCN)C(=O)N[C@@H](CO)C(=O)N[C@@H](CO)C(=O)O)[C@@H](C)O)C(C)C)[C@@H](C)O', 'nM', 2500),
  ('CC[C@H](C)[C@H](NC(=O)[C@H](CC(=O)O)NC(=O)[C@H](CC(=O)O)NC(=O)[C@H](CO)NC(=O)[C@@H](NC(=O)[C@@H](N)CCCCN)C(C)C)C(=O)N[C@H](C(=O)N[C@@H](Cc1ccc(O)cc1)C(=O)N[C@H](C(=O)N[C@@H](C)C(=O)N[C@H](C(=O)N[C@@H](C)C(=O)N[C@H](C(=O)N[C@@H](CC(C)C)C(=O)N1CCC[C@H]1C(=O)O)[C@@H](C)O)[C@@H](C)O)C(C)C)[C@@H](C)O', 'nM', 1610),
  ('CC[C@H](C)[C@H](N)C(=O)N[C@@H](C)C(=O)N[C@@H](CO)C(=O)N[C@@H](CC(C)C)C(=O)N[C@@H](Cc1ccccc1)C(=O)N[C@@H](C)C(=O)N[C@@H](C)C(=O)N[C@@H](C)C(=O)NCC(=O)N[C@@H](CC(C)C)C(=O)N[C@@H](C)C(=O)N[C@@H](C)C(=O)N[C@@H](C)C(=O)N[C@@H](C)C(=O)N1CCC[C@H]1C(=O)O', 'nM', 28000);
